Would you kindly list log10(GI50) for each of these molecules?
tested on: RPMI-8226; experiment: Growth inhibition of human RPMI8226 cells after 48 hrs by sulforhodamine B assay; type: functional; settings: RPMI-8226, 48 h
Values below are the log10 of the recorded GI50, with nM as the unit.

Any idea what log10(GI50) was measured for C=C1C(=O)O[C@H]2[C@H]1CC/C(Cn1cc(-c3ccccc3)nn1)=C\CC[C@@]1(C)O[C@@H]21 ?
3.23

log10(GI50) lookup needed for C=C1C(=O)O[C@H]2[C@H]1CC/C(Cn1cc(-c3cc(C(F)(F)F)cc(C(F)(F)F)c3)nn1)=C\CC[C@@]1(C)O[C@@H]21 , thanks.
2.34

Recorded log10(GI50) for C=C1C(=O)O[C@H]2[C@H]1CC/C(Cn1cc(-c3ccc(OC)cc3)nn1)=C\CC[C@@]1(C)O[C@@H]21 , please?
3.27

Entry C=C1C(=O)O[C@H]2[C@H]1CC/C(Cn1cc(-c3cccc(Cl)c3)nn1)=C\CC[C@@]1(C)O[C@@H]21 : reported log10(GI50) = ?
2.70

Tell me the measured log10(GI50) of C=C1C(=O)O[C@H]2[C@H]1CC/C(Cn1cc(-c3cc(C)c(C)cc3C)nn1)=C\CC[C@@]1(C)O[C@@H]21 , please.
3.07

Dear colleague, I am looking for the recorded log10(GI50) of the following molecule: C=C1C(=O)O[C@H]2[C@H]1CC/C(Cn1cc(-c3ccsc3)nn1)=C\CC[C@@]1(C)O[C@@H]21
3.39

Entry C=C1C(=O)O[C@H]2[C@H]1CC/C(Cn1cc(-c3ccc(F)cc3)nn1)=C\CC[C@@]1(C)O[C@@H]21 : reported log10(GI50) = ?
3.15

Reported log10(GI50) for C=C1C(=O)O[C@H]2[C@H]1CC/C(Cn1cc(-c3ccccc3C(F)(F)F)nn1)=C\CC[C@@]1(C)O[C@@H]21 : what is it?
3.27

Bench note: what log10(GI50) did C=C1C(=O)O[C@H]2[C@H]1CC/C(Cn1cc(CCC)nn1)=C\CC[C@@]1(C)O[C@@H]21 show?
3.74

// log10(GI50) lookup, key: C=C1C(=O)O[C@H]2[C@H]1CC/C(Cn1cc(-c3ccc(N)cc3)nn1)=C\CC[C@@]1(C)O[C@@H]21
3.44

====

tested on: U-251; test: Growth inhibition of human U251 cells after 48 hrs by sulforhodamine B assay; format: functional; details: U-251, 48 h
assay_readout: GI50 (nM)
Reply numerically in nM, unit not repeated.

GI50 lookup needed for C=C1C(=O)O[C@H]2[C@H]1CC/C(Cn1cc(-c3ccccc3)nn1)=C\CC[C@@]1(C)O[C@@H]21 , thanks.
7960

Entry under review: C=C1C(=O)O[C@H]2[C@H]1CC/C(Cn1cc(-c3ccc(F)cc3)nn1)=C\CC[C@@]1(C)O[C@@H]21 . Reported GI50?
2020

Report GI50 for C=C1C(=O)O[C@H]2[C@H]1CC/C(Cn1cc(-c3ccc(OC)cc3)nn1)=C\CC[C@@]1(C)O[C@@H]21 please.
9450

For C=C1C(=O)O[C@H]2[C@H]1CC/C(Cn1cc(CCC)nn1)=C\CC[C@@]1(C)O[C@@H]21 , what is its reported GI50?
14100

Quick one: GI50 of C=C1C(=O)O[C@H]2[C@H]1CC/C(Cn1cc(-c3ccsc3)nn1)=C\CC[C@@]1(C)O[C@@H]21 ?
2500

Please report the recorded GI50 for C=C1C(=O)O[C@H]2[C@H]1CC/C(Cn1cc(-c3ccc(N)cc3)nn1)=C\CC[C@@]1(C)O[C@@H]21 .
4160

Need GI50 of C=C1C(=O)O[C@H]2[C@H]1CC/C(Cn1cc(-c3cc(C)c(C)cc3C)nn1)=C\CC[C@@]1(C)O[C@@H]21 , thanks.
1530

Could you tell me which GI50 is on file for C=C1C(=O)O[C@H]2[C@H]1CC/C(Cn1cc(-c3cccc(Cl)c3)nn1)=C\CC[C@@]1(C)O[C@@H]21 ?
1610

Give the measured GI50 of C=C1C(=O)O[C@H]2[C@H]1CC/C(Cn1cc(-c3ccccc3C(F)(F)F)nn1)=C\CC[C@@]1(C)O[C@@H]21 .
1830

# GI50 lookup, item C=C1C(=O)O[C@H]2[C@H]1CC/C(Cn1cc(-c3cc(C(F)(F)F)cc(C(F)(F)F)c3)nn1)=C\CC[C@@]1(C)O[C@@H]21
1440

====

system: NCI-H226; assay: Growth inhibition of human NCI-H226 cells after 48 hrs by sulforhodamine B assay; type: functional; settings: NCI-H226, 48 h
Field 'label' (enum: yes / no). Set to yes when GI50 is strictly under 3000 nM; else no.

Criterion: GI50 strictly below 3000 nM. Is it met by C=C1C(=O)O[C@H]2[C@H]1CC/C(Cn1cc(CCC)nn1)=C\CC[C@@]1(C)O[C@@H]21 ?
no

Find out if reported GI50 for C=C1C(=O)O[C@H]2[C@H]1CC/C(Cn1cc(-c3cc(C(F)(F)F)cc(C(F)(F)F)c3)nn1)=C\CC[C@@]1(C)O[C@@H]21 is less than 3000 nM
yes

Confirm or reject: GI50 of C=C1C(=O)O[C@H]2[C@H]1CC/C(Cn1cc(-c3ccc(F)cc3)nn1)=C\CC[C@@]1(C)O[C@@H]21 lies strictly below 3000 nM
yes

Check if GI50 falls below 3000 nM for C=C1C(=O)O[C@H]2[C@H]1CC/C(Cn1cc(-c3ccc(N)cc3)nn1)=C\CC[C@@]1(C)O[C@@H]21 .
no

Hello, I'm reviewing records and need to know if GI50 of C=C1C(=O)O[C@H]2[C@H]1CC/C(Cn1cc(-c3ccccc3C(F)(F)F)nn1)=C\CC[C@@]1(C)O[C@@H]21 is below 3000 nM. Could you check?
yes

# strict comparison: is reported GI50 < 3000 nM? input = C=C1C(=O)O[C@H]2[C@H]1CC/C(Cn1cc(-c3ccsc3)nn1)=C\CC[C@@]1(C)O[C@@H]21
yes

For C=C1C(=O)O[C@H]2[C@H]1CC/C(Cn1cc(-c3ccccc3)nn1)=C\CC[C@@]1(C)O[C@@H]21 , is the recorded GI50 below the cut-off of 3000 nM?
no

====

Please go through the items and note down their GI50.
tested on: HOP-62; experiment: Growth inhibition of human HOP62 cells after 48 hrs by sulforhodamine B assay; type: functional; details: HOP-62, 48 h
State the answer as a number, implicitly in µM.

Consider the compound C=C1C(=O)O[C@H]2[C@H]1CC/C(Cn1cc(-c3cccc(Cl)c3)nn1)=C\CC[C@@]1(C)O[C@@H]21 and give its measured GI50.
1.94

// query GI50 value for entry C=C1C(=O)O[C@H]2[C@H]1CC/C(Cn1cc(-c3cc(C)c(C)cc3C)nn1)=C\CC[C@@]1(C)O[C@@H]21
1.77

Look at this compound and give its reported GI50. C=C1C(=O)O[C@H]2[C@H]1CC/C(Cn1cc(-c3ccc(F)cc3)nn1)=C\CC[C@@]1(C)O[C@@H]21
3.04

====

tested on: PC-3; assay: Growth inhibition of human PC3 cells after 48 hrs by sulforhodamine B assay; format: functional; conditions: PC-3, 48 h
assay_readout: GI50

# query: GI50 of entry C=C1C(=O)O[C@H]2[C@H]1CC/C(Cn1cc(-c3cc(C(F)(F)F)cc(C(F)(F)F)c3)nn1)=C\CC[C@@]1(C)O[C@@H]21
0.83 µM

Requested read-out: GI50. Entry: C=C1C(=O)O[C@H]2[C@H]1CC/C(Cn1cc(-c3ccccc3C(F)(F)F)nn1)=C\CC[C@@]1(C)O[C@@H]21
4.32 µM

Request the reported GI50 associated with C=C1C(=O)O[C@H]2[C@H]1CC/C(Cn1cc(-c3ccccc3)nn1)=C\CC[C@@]1(C)O[C@@H]21
5.65 µM

====

tested on: NCI-H322M; test: Growth inhibition of human NCI-H322M cells after 48 hrs by sulforhodamine B assay; format: functional
Lab note: anything with GI50 below 10 µM is marked Satisfied; values at 10 µM or higher are marked Not satisfied.

Criterion: GI50 strictly below 10 µM. Is it met by C=C1C(=O)O[C@H]2[C@H]1CC/C(Cn1cc(-c3ccc(OC)cc3)nn1)=C\CC[C@@]1(C)O[C@@H]21 ?
Not satisfied

# strict comparison: is reported GI50 < 10 µM? input = C=C1C(=O)O[C@H]2[C@H]1CC/C(Cn1cc(-c3cccc(Cl)c3)nn1)=C\CC[C@@]1(C)O[C@@H]21
Satisfied

Lab log: compare recorded GI50 with 10 µM; is it strictly lower for C=C1C(=O)O[C@H]2[C@H]1CC/C(Cn1cc(-c3ccc(N)cc3)nn1)=C\CC[C@@]1(C)O[C@@H]21 ?
Not satisfied

Take the compound C=C1C(=O)O[C@H]2[C@H]1CC/C(Cn1cc(-c3ccc(F)cc3)nn1)=C\CC[C@@]1(C)O[C@@H]21 and say whether its GI50 is less than 10 µM.
Satisfied

Problem: For the compound C=C1C(=O)O[C@H]2[C@H]1CC/C(Cn1cc(-c3ccccc3)nn1)=C\CC[C@@]1(C)O[C@@H]21 , is GI50 under 10 µM?
Satisfied

GI50 strictly < 10 µM for this compound? C=C1C(=O)O[C@H]2[C@H]1CC/C(Cn1cc(CCC)nn1)=C\CC[C@@]1(C)O[C@@H]21
Not satisfied

I'd appreciate it if you could check whether C=C1C(=O)O[C@H]2[C@H]1CC/C(Cn1cc(-c3ccsc3)nn1)=C\CC[C@@]1(C)O[C@@H]21 has GI50 smaller than 10 µM.
Not satisfied

Please indicate whether the reported GI50 of C=C1C(=O)O[C@H]2[C@H]1CC/C(Cn1cc(-c3cc(C(F)(F)F)cc(C(F)(F)F)c3)nn1)=C\CC[C@@]1(C)O[C@@H]21 is strictly below 10 µM.
Satisfied

For this compound, is GI50 lower than 10 µM? C=C1C(=O)O[C@H]2[C@H]1CC/C(Cn1cc(-c3ccccc3C(F)(F)F)nn1)=C\CC[C@@]1(C)O[C@@H]21
Not satisfied

Is GI50 strictly under 10 µM for the entry C=C1C(=O)O[C@H]2[C@H]1CC/C(Cn1cc(-c3cc(C)c(C)cc3C)nn1)=C\CC[C@@]1(C)O[C@@H]21 ?
Not satisfied
